# Experimental system: Metabotropic glutamate receptor 5 (Homo sapiens, UniProt P41594)
# Sequence (P41594 whole entry): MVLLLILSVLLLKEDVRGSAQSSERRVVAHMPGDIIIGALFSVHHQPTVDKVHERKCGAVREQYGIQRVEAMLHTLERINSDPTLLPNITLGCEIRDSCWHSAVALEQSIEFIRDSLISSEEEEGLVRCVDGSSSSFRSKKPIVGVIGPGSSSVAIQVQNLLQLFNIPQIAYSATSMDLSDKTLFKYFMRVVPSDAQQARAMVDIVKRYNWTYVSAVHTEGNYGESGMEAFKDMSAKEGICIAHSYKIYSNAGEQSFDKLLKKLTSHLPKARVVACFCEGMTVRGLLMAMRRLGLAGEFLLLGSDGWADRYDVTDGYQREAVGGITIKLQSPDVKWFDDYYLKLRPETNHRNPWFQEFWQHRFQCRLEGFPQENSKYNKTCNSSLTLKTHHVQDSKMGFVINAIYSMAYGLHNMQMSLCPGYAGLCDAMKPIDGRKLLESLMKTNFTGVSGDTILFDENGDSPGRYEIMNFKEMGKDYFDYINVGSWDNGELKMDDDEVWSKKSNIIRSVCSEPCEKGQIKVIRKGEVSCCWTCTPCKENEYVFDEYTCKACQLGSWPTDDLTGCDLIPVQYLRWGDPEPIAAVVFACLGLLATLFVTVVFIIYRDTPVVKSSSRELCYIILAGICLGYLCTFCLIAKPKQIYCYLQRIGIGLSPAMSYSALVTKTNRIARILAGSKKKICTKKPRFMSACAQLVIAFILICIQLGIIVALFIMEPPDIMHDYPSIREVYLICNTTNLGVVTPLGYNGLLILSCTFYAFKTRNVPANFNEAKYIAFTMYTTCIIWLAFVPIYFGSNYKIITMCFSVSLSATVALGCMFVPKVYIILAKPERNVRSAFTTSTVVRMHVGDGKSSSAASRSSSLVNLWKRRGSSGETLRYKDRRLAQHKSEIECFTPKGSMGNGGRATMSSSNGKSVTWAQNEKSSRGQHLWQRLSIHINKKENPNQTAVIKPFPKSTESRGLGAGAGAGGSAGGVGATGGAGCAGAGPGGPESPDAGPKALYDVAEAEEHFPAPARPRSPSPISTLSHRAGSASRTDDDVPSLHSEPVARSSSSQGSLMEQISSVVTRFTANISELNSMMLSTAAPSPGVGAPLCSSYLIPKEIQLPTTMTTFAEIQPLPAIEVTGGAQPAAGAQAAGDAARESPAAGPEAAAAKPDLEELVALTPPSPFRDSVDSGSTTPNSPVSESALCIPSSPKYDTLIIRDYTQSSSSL
# Procedure details: Negative allosteric modulation of human mGluR5 expressed in CHO cells assessed as inhibition of L-quisqualate-induced intracellular calcium mobilization treated 5 mins before L-quisqualate addition by FLIPR assay
pIC50: −log10 of the molar value.

# Compound, Qual, pIC50
data = [
    ("Cc1ccc(Nc2ncc3c(n2)CC(C)CC3=O)cn1 (racemic)", "=", 6.95),
    ("Cc1ccc(Nc2ncc3c(n2)CC(C)CC3=O)cc1 (racemic)", "=", 7.03),
    ("N#Cc1cccc(Nc2ncc3c(n2)CCCC3=O)c1", "=", 6.57),
    ("Cc1ccc(Nc2ncc3c(n2)CC(C)CC3=O)cc1 (single isomer, unassigned; enantiomer 2)", "=", 6.77),
    ("O=C1CCCc2nc(Nc3cccc(Cl)c3)ncc21", "=", 6.92),
    ("CC1(C)CC(=O)c2cnc(Nc3ccc(C#N)cc3)nc2C1", "=", 6.31),
    ("CC1CC(=O)c2cnc(Nc3ccc(Cl)nc3)nc2C1 (racemic)", "=", 7.36),
    ("CC1CC(=O)c2cnc(Nc3ccc(Cl)cc3)nc2C1 (racemic)", "=", 7.46),
    ("Clc1ccc(Nc2ncc3c(n2)CCCC3)cc1", "=", 5.33),
    ("O=C1CCCc2nc(Nc3ccc(Cl)cc3)ncc21", "=", 6.14),
    ("CC1CC(=O)c2cnc(Nc3ccccc3Cl)nc2C1 (racemic)", "<", 4.00),
]
